Value source: patent US20260130395A1

Experiment: Stability of cannabinoid compounds and Vitamin E components in Beverage 2 (AB Red) by LCMSMS
Type: physicochemical
Conditions: stored at 8° C., 570 days
reported-metric: Stability of Plant-Derived Cannabinoid Compounds in AB Red (µg/mL)
Report the figure in µg/mL without appending any unit label.

compound: CCCCCc1cc(O)c(C/C=C(\C)CCC=C(C)C)c(O)c1
result-number: 4.37

Param item = `C=C(C)[C@@H]1CCC(C)=C[C@H]1c1c(O)cc(CCC)cc1O` ; retrieve measured Stability of Plant-Derived Cannabinoid Compounds in AB Red. 0.183

Param item = CCCCCc1cc(O)c2c(c1)OC(C)(CCC=C(C)C)C=C2 (stereo not drawn) ; retrieve measured Stability of Plant-Derived Cannabinoid Compounds in AB Red. 0.266

Param item = CCCc1cc(O)c2c(c1)OC(C)(C)[C@@H]1CCC(C)=C[C@@H]21 [THCV, delta-9-tetrahydrocannabivarin] ; retrieve measured Stability of Plant-Derived Cannabinoid Compounds in AB Red. 2.95

----------
Experiment: Stability of cannabinoid compounds and Vitamin E components in Beverage 2 (AB Red) by LCMSMS
Assay type: physicochemical
Details: stored at 8° C., 5 days
Binning scheme for Stability of Plant-Derived Cannabinoid Compounds in AB Red: group A: < 0.5 µg/mL; group B: ≥ 0.5 µg/mL and < 3 µg/mL; group C: ≥ 3 µg/mL

Hello team, could you let me know which band the following compound falls into: CCCCCc1cc(O)c2c(c1)OC(C)(C)c1ccc(C)cc1-2 [CBN, cannabinol] group B

----------
Assay: Stability of cannabinoid compounds and Vitamin E components in Beverage 2 (AB Red) by LCMSMS
Format: physicochemical
Conditions: stored at 21-25° C., 30 days
// reported Stability of Plant-Derived Cannabinoid Compounds in AB Red per item

compound: CCCCCc1cc(O)c(C/C=C(\C)CCC=C(C)C)c(O)c1 [CBG, cannabigerol]
result: 4.73 µg/mL

Param item = CCCCCc1cc(O)c2c(c1)OC1(C)CCC3C1C2C3(C)C (stereo not drawn) [CBL, cannabicyclol] ; retrieve measured Stability of Plant-Derived Cannabinoid Compounds in AB Red. 0.51 µg/mL

Param item = CCCCCc1cc(O)c2c(c1)OC(C)(C)[C@@H]1CCC(C)=C[C@@H]21 [D9 THC, delta-9-tetrahydrocannabinol, reference compound] ; retrieve measured Stability of Plant-Derived Cannabinoid Compounds in AB Red. 12.4 µg/mL

Param item = CCCCCc1cc(O)c2c(c1)OC(C)(CCC=C(C)C)C=C2 (stereo not drawn) [CBC, cannabichromene] ; retrieve measured Stability of Plant-Derived Cannabinoid Compounds in AB Red. 0.29 µg/mL

Param item = CCCCCc1cc(O)c2c(c1)OC(C)(C)c1ccc(C)cc1-2 [CBN, cannabinol] ; retrieve measured Stability of Plant-Derived Cannabinoid Compounds in AB Red. 2.77 µg/mL

----------
Test: Stability of cannabinoid compounds and Vitamin E components in Beverage 2 (AB Red) by LCMSMS
Assay type: physicochemical
Conditions: stored at 21-25° C., 25 days
Stability of Plant-Derived Cannabinoid Compounds in AB Red below 3 µg/mL gives not met; Stability of Plant-Derived Cannabinoid Compounds in AB Red at or above it gives met.

compound: CCCCCc1cc(O)c(C/C=C(\C)CCC=C(C)C)c(O)c1 [CBG, cannabigerol]
label-class: met

Decide: is the reported value of Stability of Plant-Derived Cannabinoid Compounds in AB Red for CCCCCc1cc(O)c2c(c1)OC(C)(C)c1ccc(C)cc1-2 [CBN, cannabinol] equal to or greater than 3 µg/mL? not met

Decide: is the reported value of Stability of Plant-Derived Cannabinoid Compounds in AB Red for CCCCCc1cc(O)c2c(c1)OC(C)(CCC=C(C)C)C=C2 (stereo not drawn) [CBC, cannabichromene] equal to or greater than 3 µg/mL? not met

Decide: is the reported value of Stability of Plant-Derived Cannabinoid Compounds in AB Red for CCCCCc1cc2c(c(O)c1C(=O)O)[C@@H]1C=C(C)CC[C@H]1C(C)(C)O2 [D9 THCA, delta-9-tetrahydrocannabinolic acid] equal to or greater than 3 µg/mL? not met

Decide: is the reported value of Stability of Plant-Derived Cannabinoid Compounds in AB Red for CCCCCc1cc(O)c2c(c1)OC1(C)CCC3C1C2C3(C)C (stereo not drawn) [CBL, cannabicyclol] equal to or greater than 3 µg/mL? not met

Decide: is the reported value of Stability of Plant-Derived Cannabinoid Compounds in AB Red for CCCCCc1cc(O)c2c(c1)OC(C)(C)[C@@H]1CCC(C)=C[C@@H]21 [D9 THC, delta-9-tetrahydrocannabinol, reference compound] equal to or greater than 3 µg/mL? met

Decide: is the reported value of Stability of Plant-Derived Cannabinoid Compounds in AB Red for C=C(C)[C@@H]1CCC(C)=C[C@H]1c1c(O)cc(CCCCC)c(C(=O)O)c1O [CBDA, cannabidiolic acid] equal to or greater than 3 µg/mL? not met

Decide: is the reported value of Stability of Plant-Derived Cannabinoid Compounds in AB Red for CCCc1cc(O)c2c(c1)OC(C)(C)[C@@H]1CCC(C)=C[C@@H]21 [THCV, delta-9-tetrahydrocannabivarin] equal to or greater than 3 µg/mL? met

Decide: is the reported value of Stability of Plant-Derived Cannabinoid Compounds in AB Red for C=C(C)[C@@H]1CCC(C)=C[C@H]1c1c(O)cc(CCC)cc1O [CBDV, cannabidivarin] equal to or greater than 3 µg/mL? not met

----------
Assay: Stability of cannabinoid compounds and Vitamin E components in Beverage 1 (AB White) by LCMSMS
Format: physicochemical
Details: AB White stored at 8° C.; 150 days
Binning scheme for Stability of Plant-Derived Cannabinoid Compounds in AB White, 8° C.: b0 = under 1 µg/mL, b1 = from 1 µg/mL up to 4 µg/mL, b2 = 4 µg/mL and over

compound: CCCCCc1cc2c(c(O)c1C(=O)O)[C@@H]1C=C(C)CC[C@H]1C(C)(C)O2 [D9 THCA, delta-9-tetrahydrocannabinolic acid]
label-class: b0
//
compound: CCCCCc1cc(O)c2c(c1)OC1(C)CCC3C1C2C3(C)C (stereo not shown)
label-class: b0
//
compound: C=C(C)[C@@H]1CCC(C)=C[C@H]1c1c(O)cc(CCCCC)cc1O [CBD, cannabidiol, reference compound]
label-class: b2

Hello team, could you let me know which band the following compound falls into: CCCc1cc(O)c2c(c1)OC(C)(C)[C@@H]1CCC(C)=C[C@@H]21 [THCV, delta-9-tetrahydrocannabivarin] b1

Hello team, could you let me know which band the following compound falls into: `C=C(C)[C@@H]1CCC(C)=C[C@H]1c1c(O)cc(CCCCC)c(C(=O)O)c1O` b1

Hello team, could you let me know which band the following compound falls into: CCCCCc1cc(O)c2c(c1)OC(C)(CCC=C(C)C)C=C2 (stereo not shown) b0

----------
Assay: Stability of cannabinoid compounds and Vitamin E components in Beverage 1 (AB White) by LCMSMS
Assay type: physicochemical
Details: AB White stored at 8° C.; 360 days
// reported Stability of Plant-Derived Cannabinoid Compounds in AB White, 8° C. per item
Report the figure in µg/mL without appending any unit label.

// worked examples, Stability of Plant-Derived Cannabinoid Compounds in AB White, 8° C. included
molecule: CCCCCc1cc(O)c2c(c1)OC(C)(C)[C@@H]1CCC(C)=C[C@@H]21 [D9 THC, delta-9-tetrahydrocannabinol, reference compound]
units-label: µg/mL
result-number: 11.88

molecule: C=C(C)[C@@H]1CCC(C)=C[C@H]1c1c(O)cc(CCCCC)cc1O [CBD, cannabidiol, reference compound]
units-label: µg/mL
result-number: 27.79

molecule: CCCCCc1cc(O)c(C/C=C(\C)CCC=C(C)C)c(O)c1
units-label: µg/mL
result-number: 4.66

molecule: CCCc1cc(O)c2c(c1)OC(C)(C)[C@@H]1CCC(C)=C[C@@H]21 [THCV, delta-9-tetrahydrocannabivarin]
units-label: µg/mL
result-number: 3.50

molecule: CCCCCc1cc(O)c2c(c1)OC1(C)CCC3C1C2C3(C)C (stereo not shown)
units-label: µg/mL
result-number: 0.533

molecule: CCCCCc1cc(O)c2c(c1)OC(C)(CCC=C(C)C)C=C2 (stereo not shown)
units-label: µg/mL
result-number: 0.306

molecule: C=C(C)[C@@H]1CCC(C)=C[C@H]1c1c(O)cc(CCCCC)c(C(=O)O)c1O
units-label: µg/mL
result-number: 1.70

molecule: CCCCCc1cc2c(c(O)c1C(=O)O)[C@@H]1C=C(C)CC[C@H]1C(C)(C)O2 [D9 THCA, delta-9-tetrahydrocannabinolic acid]
units-label: µg/mL
result-number: 0.913

Param item = `C=C(C)[C@@H]1CCC(C)=C[C@H]1c1c(O)cc(CCC)cc1O` ; retrieve measured Stability of Plant-Derived Cannabinoid Compounds in AB White, 8° C.. 0.145

Param item = `CCCCCc1cc(O)c2c(c1)OC(C)(C)c1ccc(C)cc1-2` ; retrieve measured Stability of Plant-Derived Cannabinoid Compounds in AB White, 8° C.. 2.68
